Target: acetylcholine receptor
Assay: SPR, peptide at 10 uM on immobilized AchR
READOUT_NAME: Binding affinity (RU)

In [3]: df
Out[3]:
                 binder           readout_name  value_reported
0   RATIKR [6mer-2-999]  Binding affinity (RU)              31
1  RPTKKK [6mer-2-1018]  Binding affinity (RU)              24
2  KHPKRR [6mer-2-1098]  Binding affinity (RU)              28
3  KYKMRR [6mer-2-1081]  Binding affinity (RU)              32
4  KYNIRK [6mer-2-1062]  Binding affinity (RU)              35

1: KTNERK [6mer-2-1060]
2: KEEMRR [6mer-2-1087]
Input line: I'm curious whether 1 or 2 has the smaller Binding affinity (RU) number. Which is it? Identify your selection by its label.
Output line: 2
(2: 21 RU, 1: 35 RU)
